# System: ERK1/2
# ASSAY DETAILS: pERK
# Assay type: cell-based
# COND: Homo sapiens, SNU-16, 2 h, read-out: cellular potency IC50 (pERK)
ASSAY ENDPOINT: IC50 (nM)
All answers are understood in nM, so give the number only.

Input: For the compound `C=C(C)C(=O)Nc1ccc(-c2c(-c3ccc(Oc4nccc(C)n4)c(F)c3)c3c(N)ncnc3n2C)cc1` , what IC50 is on record?
Output: 3
